Data origin: patent US20230235048A1

Overview of recorded EC50 for various binders
Biological target: T1, extracellular domain (ECD) of recombinant human Sortilin with a C-terminal HIS tag (ECD-huSortilin-HIS) (human, UniProt Q99523 78-755)
T1 construct: Bought (R&D Systems); also called human sortilin-ECD; not shown: C-terminal HIS tag
T1 sequence: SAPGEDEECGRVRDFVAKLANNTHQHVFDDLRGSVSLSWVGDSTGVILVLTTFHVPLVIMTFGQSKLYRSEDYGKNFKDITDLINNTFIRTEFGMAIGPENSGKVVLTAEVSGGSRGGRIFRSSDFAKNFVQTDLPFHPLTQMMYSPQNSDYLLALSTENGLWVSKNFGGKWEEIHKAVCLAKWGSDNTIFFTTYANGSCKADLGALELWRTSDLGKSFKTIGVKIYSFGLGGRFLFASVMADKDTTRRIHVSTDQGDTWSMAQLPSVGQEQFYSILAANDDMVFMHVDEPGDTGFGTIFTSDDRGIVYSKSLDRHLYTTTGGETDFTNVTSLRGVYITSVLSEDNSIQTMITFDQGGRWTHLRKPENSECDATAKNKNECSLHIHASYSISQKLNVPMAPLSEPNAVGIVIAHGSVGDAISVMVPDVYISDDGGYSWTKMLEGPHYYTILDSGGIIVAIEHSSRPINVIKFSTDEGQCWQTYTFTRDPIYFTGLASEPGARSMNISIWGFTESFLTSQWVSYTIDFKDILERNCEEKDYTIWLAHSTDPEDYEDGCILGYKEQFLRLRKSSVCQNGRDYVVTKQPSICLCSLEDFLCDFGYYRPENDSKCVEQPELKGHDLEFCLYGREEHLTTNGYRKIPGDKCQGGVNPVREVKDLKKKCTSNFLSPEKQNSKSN
Test: ELISA, ECD-huSortilin-HIS coated at 1 ug/mL, goat anti-human IgG-HRP, chemiluminescence
Reply numerically in mg/L, unit not repeated.

[
  {
    "binder": "humanized 5E20 hu5E20VHv4/hu5E20VLv3 (antibody, V domains shown, Human IgG; also called 5E20H4L3) VH: EVQLVESGGGLVQPGGSLRLSCAASGFTFSTYGMSWVRQAPDKRLEWVAIISSGGSYTYYSDTVKGRFTISRDNSKNSLYLQMNSLRAEDTAVYYCSRSSSHWYFDVWGQGTLVTVSS VL: DIQMTQSPSSVSASVGDRVTITCHASQGISSNIGWLQQKPGKAFKGLIYHGTNLKDGVPSRFSGSGSGADFTLTISSLQPEDFATYFCVQYAQFPYTFGQGTKVEKR",
    "resultValue": 0.07
  },
  {
    "binder": "humanized 11M14 hu11M14VHv3b/hu11M14VLv2b (antibody, V domains shown, Human IgG; also called 11M14H3bL2b) VH: EVQLVESGGGLVQPGGSLRLSCAASGFTFNIYGMSWVRQAPGKGLEWVATISSGGIYTYYPDILKGRFTISRDNAKNSLYGQMNSLRAEDTAVYYCARHPGGAMDYWGQGTLVTVSS VL: DIQMTQSPSSLSASVGDRVTITCRVSENIYSNLAWYQQKPGKSPKLLVYAATNLADGVPSRFSGSGSGTDYTLTISSLQPEDFATYYCQHFWGTPPWTFGQGTKLEIK",
    "resultValue": 0.19
  },
  {
    "binder": "humanized 5E20 hu5E20VHv5/hu5E20VLv4 (antibody, V domains shown, Human IgG; also called 5E20H5L4) VH: EVQLVESGGGLVQPGGSLRLSCAASGFTFSTYGMSWVRQAPDKRLEWVAIISSGGSYTYYSDTVKGRFTISRDNSKNSLYLQMNSLKAEDTAVYYCSRSSSHWYFDVWGQGTLVTVSS VL: DIQMTQSPSSVSASVGDRVTITCHASQGISSNIGWLQQKPGKAFKGLIYHGTNLKDGVPSRFSGSGSGADFTLTISSLQPEDFADYFCVQYAQFPYTFGQGTKVEKR",
    "resultValue": 0.05
  },
  {
    "binder": "humanized 5E20 hu5E20VHv5/hu5E20VLv3 (antibody, V domains shown, Human IgG; also called 5E20H5L3) VH: EVQLVESGGGLVQPGGSLRLSCAASGFTFSTYGMSWVRQAPDKRLEWVAIISSGGSYTYYSDTVKGRFTISRDNSKNSLYLQMNSLKAEDTAVYYCSRSSSHWYFDVWGQGTLVTVSS VL: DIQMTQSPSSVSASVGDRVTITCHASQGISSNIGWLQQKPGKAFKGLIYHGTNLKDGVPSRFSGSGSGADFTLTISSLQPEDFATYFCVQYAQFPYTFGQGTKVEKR",
    "resultValue": 0.07
  }
]

As a next step, examine the binder that follows.
Any idea what its EC50 is? The binder is humanized 5E20 hu5E20VHv7/hu5E20VLv3 (antibody, V domains shown, Human IgG; also called 5E20H7L3) VH: EVQLVESGGGLVQPGGSLRLSCAASGFTFSTYGMSWVRQTPDKRLEWVAIISSGGSYTYYSDTVKGRFTISRDNSKNSLYLQMNSLRAEDTAVYYCSRSSSHWYFDVWGQGTLVTVSS VL: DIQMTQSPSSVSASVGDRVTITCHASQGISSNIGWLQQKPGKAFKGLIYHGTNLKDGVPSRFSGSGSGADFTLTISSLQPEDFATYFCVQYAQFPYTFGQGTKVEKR
0.06
